study.system: EGFR (human)
assay.conditions: a431
pIC50: −log10 of the molar value.
measured.endpoint: pIC50

Worked set:
O=C(Cn1ccc(-c2ccc3ncnc(Nc4ccc(OCc5cccc(F)c5)c(Cl)c4)c3c2)c1)NC1CCS(=O)(=O)CC1	5.43
Fc1cccc(Cn2ncc3cc(Nc4ncnc5ccc(-n6cccc6)cc45)ccc32)c1	7.10
Fc1cccc(COc2ccc(Nc3ncnc4ccc(-c5ccn(CCN6CCN(C7CC7)CC6)c5)cc34)cc2Cl)c1	5.90
COCCNCc1cn(-c2ccc3ncnc(Nc4ccc(OCc5cccc(F)c5)c(Cl)c4)c3c2)cc1C(F)(F)F	6.32
CN(C)[C@@H]1CCN(C(=O)Cn2ccc(-c3ccc4ncnc(Nc5ccc(OCc6cccc(F)c6)c(Cl)c5)c4c3)c2)C1	5.59

1. OC(CN1CC[C@@H](F)C1)Cn1ccc(-c2ccc3ncnc(Nc4ccc(OCc5cccc(F)c5)c(Cl)c4)c3c2)c1 (stereo partly drawn)
2. CCN(CC)CCNCc1ccc(-c2ccc3ncnc(Nc4ccc(OCc5cccc(F)c5)c(Cl)c4)c3c2)[nH]1
3. CN1CCN(Cc2cn(-c3ccc4ncnc(Nc5ccc(F)c(Cl)c5)c4c3)cc2CCO)CC1
4. OCCn1ccc(-c2ccc3ncnc(Nc4ccc(OCc5cccc(F)c5)c(Cl)c4)c3c2)c1
Query: Highest pIC50 first, then in falling order down to the smallest. Answer format: list of labels, ordered as asked.
Response: 4, 3, 1, 2
(4: 7.40, 3: 6.68, 1: 6.17, 2: 5.84)

----------
pIC50: −log10 of the molar value.
In what follows, each item is paired with its pIC50 for EGFR (human).
measured.endpoint: pIC50

Worked set:
CCN(CC)Cc1ccn(-c2ccc3ncnc(Nc4ccc(OCc5cccc(F)c5)c(Cl)c4)c3c2)c1	8.05
OCCn1ccc(-c2ccc3ncnc(Nc4ccc(OCc5cccc(F)c5)c(Cl)c4)c3c2)c1	7.28
CN(C)Cc1cn(-c2ccc3ncnc(Nc4ccc(OCc5cccc(F)c5)c(Cl)c4)c3c2)cc1CN(C)C	7.25

I. CN1CCN(CCNC(=O)c2cn(-c3ccc4ncnc(Nc5ccc(OCc6ccccn6)c(Cl)c5)c4c3)cc2CCO)CC1
II. CS(=O)(=O)CCNCc1ccc(-c2ccc3ncnc(Nc4ccc(OCc5cccc(F)c5)c(Cl)c4)c3c2)[nH]1
Query: Please tell me which of the two, I or II , has the higher reported pIC50 value. In your reply, give the label of the chosen option.
Response: II

I. CCN(CC)CC(O)Cn1ccc(-c2ccc3ncnc(Nc4ccc5c(cnn5Cc5cccc(F)c5)c4)c3c2)c1 (configuration not stated)
II. CS(=O)(=O)CCOCC(O)Cn1ccc(-c2ccc3ncnc(Nc4ccc(OCc5cccc(F)c5)c(Cl)c4)c3c2)c1 (configuration not stated)
III. OCCc1cn(-c2ccc3ncnc(Nc4ccc(OCc5cccc(F)c5)c(Cl)c4)c3c2)cc1CN1CCCC1
IV. CCN(CC)C(=O)Cn1ccc(-c2ccc3ncnc(Nc4ccc(OCc5cccc(F)c5)c(Cl)c4)c3c2)c1
V. CCN(CC)CCNC(=O)c1cn(-c2ccc3ncnc(Nc4ccc(OCc5cccc(F)c5)c(Cl)c4)c3c2)cc1CCO
Query: Please order the records by their reported pIC50, lowest number first. Answer format: list of labels, ordered as asked.
Response: IV, II, I, III, V

----------
In what follows, each item is paired with its IC50 for EGFR (human).
measured.endpoint: IC50 (nM)

Fc1cccc(COc2ccc(Nc3ncnc4ccc(-n5cc(CN6CCOCC6)c(CN6CCOCC6)c5)cc34)cc2Cl)c1	376
O=S1(=O)CCC(CNCc2cc(-c3ccc4ncnc(Nc5ccc6c(cnn6Cc6cccc(F)c6)c5)c4c3)c[nH]2)CC1	7
Fc1cccc(COc2ccc(Nc3ncnc4ccc(-c5ccn(CCCN6CCOCC6)c5)cc34)cc2Cl)c1	39
CS(=O)(=O)CCNCc1ccc(-c2ccc3ncnc(Nc4ccc(OCc5ccccn5)c(Cl)c4)c3c2)[nH]1	13
Fc1cccc(COc2ccc(Nc3ncnc4ccc(-c5c[nH]c(CNCCCN6CCOCC6)c5)cc34)cc2Cl)c1	197
Clc1cc(Nc2ncnc3ccc(-n4cccc4)cc23)ccc1OCc1ccccn1	6
Fc1cccc(COc2ccc(Nc3ncnc4ccc(-c5ccn(C[C@H]6COCCN6)c5)cc34)cc2Cl)c1	79
Fc1cccc(COc2ccc(Nc3ncnc4ccc(-c5ccn(CCc6ccncc6)c5)cc34)cc2Cl)c1	166

A. Fc1ccc(Nc2ncnc3ccc(-n4cccc4)cc23)cc1Cl
B. Fc1cccc(COc2ccc(Nc3ncnc4ccc(-n5cccc5)cc34)cc2Cl)c1
Query: Returns: the label, A or B , whose recorded IC50 is the lower number. In your reply, give the label of the chosen option.
Response: B
(B: 3 nM, A: 61 nM)

----------
study.system: UniProt P00533
assay.conditions: a431
measured.endpoint: IC50 (nM)

1. Fc1cccc(COc2ccc(Nc3ncnc4ccc(-c5ccn(CCNC6CC6)c5)cc34)cc2Cl)c1
2. O[C@H](CN1CCOCC1)Cn1ccc(-c2ccc3ncnc(Nc4ccc(OCc5cccc(F)c5)c(Cl)c4)c3c2)c1
Query: Returns: the label, 1 or 2 , whose recorded IC50 is the lower number. In your reply, give the label of the chosen option.
Response: 2
(2: 511 nM, 1: 747 nM)

1. C[C@@H]1CN(C(=O)Cn2ccc(-c3ccc4ncnc(Nc5ccc(OCc6cccc(F)c6)c(Cl)c5)c4c3)c2)C[C@H](C)N1
2. CN(C)Cc1cn(-c2ccc3ncnc(Nc4ccc(F)c(Cl)c4)c3c2)cc1CCO
Query: Returns: the label, 1 or 2 , whose recorded IC50 is the lower number. In your reply, give the label of the chosen option.
Response: 2
(2: 150 nM, 1: 771 nM)

A. CN1CCN(CC(O)Cn2ccc(-c3ccc4ncnc(Nc5ccc(OCc6cccc(F)c6)c(Cl)c5)c4c3)c2)CC1 (configuration not stated)
B. O=S1(=O)CCC(O)(CNCc2cc(-c3ccc4ncnc(Nc5ccc6c(cnn6Cc6cccc(F)c6)c5)c4c3)c[nH]2)CC1
Query: Returns: the label, A or B , whose recorded IC50 is the lower number. In your reply, give the label of the chosen option.
Response: A
(A: 84 nM, B: 2870 nM)

1. O=C(c1cn(-c2ccc3ncnc(Nc4ccc(OCc5cccc(F)c5)c(Cl)c4)c3c2)cc1CCO)N1CCOCC1
2. Fc1cccc(Cn2ncc3cc(Nc4ncnc5ccc(-c6ccn(CCN7CCCC7)c6)cc45)ccc32)c1
3. Fc1cccc(COc2ccc(Nc3ncnc4ccc(-c5ccn(Cc6ccccn6)c5)cc34)cc2Cl)c1
Query: Please order the records by their reported IC50, lowest number first. Answer format: list of labels, ordered as asked.
Response: 1, 2, 3

----------
In what follows, each item is paired with its pIC50 for EGFR (human) (UniProt P00533).
pIC50: −log10 of the molar value.
measured.endpoint: pIC50

CC(C)(C)OC(=O)n1cccc1-c1ccc2ncnc(Nc3ccc(OCc4cccc(F)c4)c(Cl)c3)c2c1	7.55
O=C(c1cn(-c2ccc3ncnc(Nc4ccc(OCc5ccccn5)c(Cl)c4)c3c2)cc1CCO)N1CCC(N2CCCCC2)CC1	6.98
OCCc1cn(-c2ccc3ncnc(Nc4ccc(OCc5cccc(F)c5)c(Cl)c4)c3c2)cc1CN1CCCCC1	7.27
O=C(Cn1ccc(-c2ccc3ncnc(Nc4ccc(OCc5cccc(F)c5)c(Cl)c4)c3c2)c1)NC1CC1	7.89
CCN(CC)C[C@@H](O)Cn1ccc(-c2ccc3ncnc(Nc4ccc5c(cnn5Cc5cccc(F)c5)c4)c3c2)c1	7.15

1. O=C(Cn1ccc(-c2ccc3ncnc(Nc4ccc(OCc5cccc(F)c5)c(Cl)c4)c3c2)c1)NC1CCNCC1
2. CN1CCN(CC(O)Cn2ccc(-c3ccc4ncnc(Nc5ccc6c(cnn6Cc6cccc(F)c6)c5)c4c3)c2)CC1 (configuration not stated)
3. O=C1OCCc2cn(-c3ccc4ncnc(Nc5ccc(OCc6cccc(F)c6)c(Cl)c5)c4c3)cc21
4. Fc1cccc(COc2ccc(Nc3ncnc4ccc(-c5ccn(Cc6ccncc6)c5)cc34)cc2Cl)c1
5. Fc1cccc(Cn2ncc3cc(Nc4ncnc5ccc(-c6ccn(CC7CN(CCN8CCOCC8)CCO7)c6)cc45)ccc32)c1 (configuration not stated)
Query: Please order the records by their reported pIC50, lowest number first. Answer format: list of labels, ordered as asked.
Response: 5, 4, 1, 3, 2
(5: 6.56, 4: 7.10, 1: 7.47, 3: 8.30, 2: 8.70)

----------
study.system: EGFR (human) (UniProt P00533)
Sequence (P00533 whole entry, looked up): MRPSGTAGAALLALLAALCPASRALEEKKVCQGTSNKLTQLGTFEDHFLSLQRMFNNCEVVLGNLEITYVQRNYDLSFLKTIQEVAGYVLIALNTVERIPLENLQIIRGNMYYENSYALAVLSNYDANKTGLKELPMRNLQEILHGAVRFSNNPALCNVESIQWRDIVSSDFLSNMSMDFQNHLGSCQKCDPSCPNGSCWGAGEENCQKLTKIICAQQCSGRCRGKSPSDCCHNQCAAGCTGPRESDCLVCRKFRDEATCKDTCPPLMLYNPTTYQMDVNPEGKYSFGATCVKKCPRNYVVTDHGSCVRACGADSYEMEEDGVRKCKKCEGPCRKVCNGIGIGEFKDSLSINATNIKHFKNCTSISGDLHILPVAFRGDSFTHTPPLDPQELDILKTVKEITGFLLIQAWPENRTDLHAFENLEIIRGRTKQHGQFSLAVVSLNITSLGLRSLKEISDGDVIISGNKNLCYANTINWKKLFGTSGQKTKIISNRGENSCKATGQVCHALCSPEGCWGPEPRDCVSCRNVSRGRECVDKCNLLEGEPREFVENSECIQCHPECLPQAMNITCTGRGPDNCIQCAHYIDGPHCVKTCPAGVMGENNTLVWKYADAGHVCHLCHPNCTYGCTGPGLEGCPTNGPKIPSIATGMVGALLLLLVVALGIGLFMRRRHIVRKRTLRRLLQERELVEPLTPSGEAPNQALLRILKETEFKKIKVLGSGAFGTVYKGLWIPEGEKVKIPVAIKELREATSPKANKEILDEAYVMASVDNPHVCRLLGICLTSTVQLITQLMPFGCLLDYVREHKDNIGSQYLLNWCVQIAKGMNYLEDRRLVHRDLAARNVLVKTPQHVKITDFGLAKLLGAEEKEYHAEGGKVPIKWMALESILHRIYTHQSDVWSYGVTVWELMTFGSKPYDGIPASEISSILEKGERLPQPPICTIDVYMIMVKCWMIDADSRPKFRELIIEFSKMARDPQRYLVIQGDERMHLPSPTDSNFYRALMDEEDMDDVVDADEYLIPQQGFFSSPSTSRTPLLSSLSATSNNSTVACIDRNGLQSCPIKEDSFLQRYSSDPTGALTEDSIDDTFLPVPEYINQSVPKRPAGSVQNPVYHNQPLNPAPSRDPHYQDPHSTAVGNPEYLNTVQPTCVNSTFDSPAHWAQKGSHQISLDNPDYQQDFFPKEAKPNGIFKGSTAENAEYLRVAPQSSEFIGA
assay.conditions: a431
measured.endpoint: IC50 (µM)

OCCc1cn(-c2ccc3ncnc(Nc4ccc(F)c(Cl)c4)c3c2)cc1CN1CCCCC1	0.22
O=C(Cn1ccc(-c2ccc3ncnc(Nc4ccc(OCc5cccc(F)c5)c(Cl)c4)c3c2)c1)N1CCS(=O)(=O)CC1	1.49
OCCC1CCN(CC(O)Cn2ccc(-c3ccc4ncnc(Nc5ccc6c(cnn6Cc6cccc(F)c6)c5)c4c3)c2)CC1 (stereo not drawn)	0.273

1. O=C(Cn1ccc(-c2ccc3ncnc(Nc4ccc(OCc5cccc(F)c5)c(Cl)c4)c3c2)c1)N1CCNCC1
2. CCN(CC)C[C@@H](O)Cn1ccc(-c2ccc3ncnc(Nc4ccc5c(cnn5Cc5cccc(F)c5)c4)c3c2)c1
3. OCCc1cn(-c2ccc3ncnc(Nc4ccc(OCc5cccc(F)c5)c(Cl)c4)c3c2)cc1CN1CCOCC1
4. Fc1ccc(Nc2ncnc3ccc(-c4ccc[nH]4)cc23)cc1Cl
5. Fc1cccc(COc2ccc(Nc3ncnc4ccc(-c5ccn(CCCN6CCCCC6)c5)cc34)cc2Cl)c1
Query: Highest IC50 first, then in falling order down to the smallest. Answer format: list of labels, ordered as asked.
Response: 5, 1, 2, 3, 4
(5: 1.98 µM, 1: 0.661 µM, 2: 0.39 µM, 3: 0.21 µM, 4: 0.021 µM)
